Reported growth by item:
# System: E. coli TESEC Alr+ wild-type control
# assay_text: growth (OD600 after 10 h); higher = more growth (less inhibition)
# stated_conditions: compound 0.1 mM; raw OD600 reference: median of DMSO wells 0.241, cell-free background 0.041
Structures can show the parent of a compound that is named as a salt.
Form rule: numeric answer, no unit written next to it.

Identify growth associated with the molecule CCOc1ccccc1OC(c1ccccc1)C1CNCCO1 (stereo not drawn) [Reboxetine mesylate]
0.203

Identify growth associated with the molecule Nc1ccn([C@H]2CC[C@@H](CO)O2)c(=O)n1
0.246

Identify growth associated with the molecule CCCCOc1cc(C(=O)OCCN(CC)CC)ccc1N [Benoxinate hydrochloride]
0.206

Identify growth associated with the molecule COC(=O)[C@H]1[C@H]2C[C@@H]3c4[nH]c5cc(OC)ccc5c4CCN3C[C@H]2C[C@@H](OC(=O)c2cc(OC)c(OC)c(OC)c2)[C@@H]1OC
0.201

###

# Tested on: E. coli TESEC Mtb Alr
# assay_text: growth (OD600 after 10 h); higher = more growth (less inhibition)
# stated_conditions: arabinose 100000 nM; compound 0.1 mM; raw OD600 reference: median of DMSO wells 0.201, cell-free background 0.041
Structures can show the parent of a compound that is named as a salt.
readout_label: growth
Form rule: numeric answer, no unit written next to it.

Below are worked cases with known answers.
{"compound": "CCCN(CCC)CCc1cccc2c1CC(=O)N2 [Ropinirole HCl]", "growth": 0.195}
{"compound": "CC(CN(C)C)CN1c2ccccc2Sc2ccccc21 (stereo not drawn) [Trimeprazine tartrate]", "growth": 0.189}
{"compound": "CCN1CC(CCN2CCOCC2)C(c2ccccc2)(c2ccccc2)C1=O (stereo not drawn) [Doxapram hydrochloride]", "growth": 0.199}
{"compound": "CCN1CCCC1CNC(=O)c1cc(S(N)(=O)=O)ccc1OC (stereo not drawn) [Sulpiride]", "growth": 0.198}

Identify growth associated with the compound CCC(=O)OCC(=O)[C@@]1(OC(=O)CC)[C@@H](C)C[C@H]2[C@@H]3CCC4=CC(=O)C=C[C@]4(C)[C@@]3(Cl)[C@@H](O)C[C@@]21C [Beclomethasone dipropionate]
0.179

Identify growth associated with the compound Cn1c(=O)c2nc[nH]c2n(C)c1=O [Theophylline monohydrate]
0.21

Identify growth associated with the compound Cc1cc(-c2ccccc2)nnc1NCCN1CCOCC1 [Minaprine dihydrochloride]
0.182

Identify growth associated with the compound CC(C)NCC(O)c1ccc(O)c(O)c1 (single isomer, unassigned; (-)) [(-)-Isoproterenol hydrochloride]
0.184

###

# Test system: E. coli TESEC Mtb Alr
# assay_text: growth (OD600 after 10 h); higher = more growth (less inhibition)
# stated_conditions: arabinose 100 nM; compound 0.1 mM; raw OD600 reference: median of DMSO wells 0.413, cell-free background 0.052
Counter-ions that a name gives are not always drawn.
readout_label: growth

Below are worked cases with known answers.
{"compound": "O=C(NCCN1CCOCC1)c1ccc(Cl)cc1 [Moclobemide]", "measured": 0.416}
{"compound": "CO[C@@]1(NC(=O)CSCC#N)C(=O)N2C(C(=O)O)=C(CSc3nnnn3C)CS[C@@H]21 [Cefmetazole sodium salt]", "measured": 0.0461}
{"compound": "Nc1ccc(O)c(C(=O)O)c1 [Mesalamine]", "measured": 0.416}
{"compound": "CCCCC(=O)O[C@H]1CC[C@H]2[C@@H]3CCc4cc(O)ccc4[C@H]3CC[C@]12C [Estradiol Valerate]", "measured": 0.436}

In the following, a different compound is considered.
Identify growth associated with the compound COc1ccnc(C[S+]([O-])c2nc3cc(OC(F)F)ccc3[nH]2)c1OC (stereo not drawn) [Pantoprazole sodium]
0.399

###

# System: E. coli TESEC Alr+ wild-type control
# assay_text: growth (OD600 after 10 h); higher = more growth (less inhibition)
# stated_conditions: compound 0.1 mM; raw OD600 reference: median of DMSO wells 0.241, cell-free background 0.041
Response key: 1 means growth >= 0.1; -1 means growth < 0.1.

{"compound": "CC(C)C(=O)c1c(C(C)C)nn2ccccc12", "group": 1}
{"compound": "CC(=O)N1CCN(c2ccc(OCC3COC(Cn4ccnc4)(c4ccc(Cl)cc4Cl)O3)cc2)CC1 (centres undefined)", "group": -1}
{"compound": "C[C@@H](O[C@H]1OCCN(Cc2n[nH]c(=O)[nH]2)[C@H]1c1ccc(F)cc1)c1cc(C(F)(F)F)cc(C(F)(F)F)c1 [Aprepitant]", "group": 1}

Does the compound Cc1cccc(N(C)C(=S)Oc2ccc3ccccc3c2)c1 [Tolnaftate] have recorded growth that is 0.1 or more?
1

Does the compound CS(=O)(=O)OCCCCOS(C)(=O)=O have recorded growth that is 0.1 or more?
1

Does the compound Cc1cn[nH]c1 [Fomepizole] have recorded growth that is 0.1 or more?
1

Does the compound CCOC(=O)C1=C(C)NC(C)=C(C(=O)OC)C1c1cccc(Cl)c1Cl (centres undefined) have recorded growth that is 0.1 or more?
-1

Does the compound CC(=O)Nc1c(I)c(C(=O)N[C@H]2C(O)O[C@H](CO)[C@@H](O)[C@@H]2O)c(I)c(N(C)C(C)=O)c1I (some centres undefined) [Metrizamide] have recorded growth that is 0.1 or more?
1

Does the compound Cc1cc(-n2c(=O)[nH]c(=O)n(C)c2=O)ccc1Oc1ccc(SC(F)(F)F)cc1 have recorded growth that is 0.1 or more?
-1

###

# Test system: E. coli TESEC Mtb DapB
# assay_text: growth (OD600 after 10 h); higher = more growth (less inhibition)
# stated_conditions: arabinose induction (level): Low; compound 0.1 mM; raw OD600 reference: median of DMSO wells 0.227, cell-free background 0.041
Structures can show the parent of a compound that is named as a salt.
Reported growth by item:
Form rule: numeric answer, no unit written next to it.

Below are worked cases with known answers.
{"molecule": "C[C@]12C=CC(=O)C=C1CC[C@H]1[C@@H]3C[C@@H](O)[C@](O)(C(=O)CO)[C@@]3(C)C[C@H](O)[C@@]12F", "growth": 0.229}
{"molecule": "C[C@]12CC[C@H]3C(=CCc4cc(O)ccc43)[C@@H]1CCC2=O", "growth": 0.183}
{"molecule": "C#C[C@]1(O)CC[C@H]2[C@@H]3CCc4cc(OC)ccc4[C@H]3CC[C@@]21C", "growth": 0.226}
{"molecule": "O=c1[nH]c(=O)n([C@H]2C[C@H](O)[C@@H](CO)O2)cc1F", "growth": 0.165}
{"molecule": "Oc1ccc(C2CNCCc3c2cc(O)c(O)c3Cl)cc1 (stereo not drawn)", "growth": 0.135}

Identify growth associated with the molecule CO[C@H]1/C=C/O[C@@]2(C)Oc3c(C)c(O)c4c(O)c(c5c(nc6cc(C)ccn65)c4c3C2=O)NC(=O)/C(C)=C\C=C\[C@H](C)[C@H](O)[C@@H](C)[C@@H](O)[C@@H](C)[C@H](OC(C)=O)[C@@H]1C
0.0515

Identify growth associated with the molecule CC(C)NC(=N)NC(=N)Nc1ccc(Cl)cc1 [Proguanil hydrochloride]
0.244

Identify growth associated with the molecule CCCOc1ccc(C(=O)OCCN(CC)CC)cc1N [Proparacaine hydrochloride]
0.231

###

# System: E. coli TESEC Mtb Alr
# assay_text: growth (OD600 after 10 h); higher = more growth (less inhibition)
# stated_conditions: arabinose 100000 nM; compound 0.1 mM; raw OD600 reference: median of DMSO wells 0.201, cell-free background 0.041
Counter-ions that a name gives are not always drawn.
Response key: true means growth >= 0.2; false means growth < 0.2.

Does the molecule COc1ccc(-c2cc(=S)ss2)cc1 have recorded growth that is 0.2 or more?
false

Does the molecule CN1CCCC(CC2c3ccccc3Sc3ccccc32)C1 (stereo not given) [Metixene hydrochloride] have recorded growth that is 0.2 or more?
false

Does the molecule O=C(N[C@H](CO)[C@H](O)c1ccc([N+](=O)[O-])cc1)C(Cl)Cl have recorded growth that is 0.2 or more?
false

Does the molecule CO[C@H]1/C=C/O[C@@]2(C)Oc3c(C)c(O)c4c(O)c(c(/C=N/N5CCN(C)CC5)c(O)c4c3C2=O)NC(=O)/C(C)=C\C=C\[C@H](C)[C@H](O)[C@@H](C)[C@@H](O)[C@@H](C)[C@H](OC(C)=O)[C@@H]1C have recorded growth that is 0.2 or more?
false

Does the molecule Nc1cc(C(Cl)=C(Cl)Cl)c(S(N)(=O)=O)cc1S(N)(=O)=O have recorded growth that is 0.2 or more?
true

###

Reported growth by item:
# Tested on: E. coli TESEC Mtb Alr
# assay_text: growth (OD600 after 10 h); higher = more growth (less inhibition)
# stated_conditions: arabinose 10000000 nM; compound 0.1 mM; raw OD600 reference: median of DMSO wells […], cell-free background 0.052
Form rule: numeric answer, no unit written next to it.

Below are worked cases with known answers.
{"molecule": "Cn1nnc2c(C(N)=O)ncn2c1=O [Temozolomide]", "growth": 0.35}
{"molecule": "CC(=O)SCC(Cc1ccccc1)C(=O)NCC(=O)OCc1ccccc1 (configuration not stated)", "growth": 0.298}
{"molecule": "C[C@@H](O)[C@H]1C(=O)N2C(C(=O)O)=C(SCCNC=N)C[C@H]12", "growth": 0.111}
{"molecule": "O=C1C(=O)c2ccccc2C(O)=C1C1CCC(c2ccc(Cl)cc2)CC1 (configuration not stated)", "growth": 0.231}
{"molecule": "CCN1CCN(c2cc3c(cc2F)c(=O)c(C(=O)O)cn3C2CC2)CC1", "growth": 0.0522}

Identify growth associated with the molecule CC=C(C)C(=O)OC1C(OC(C)=O)C2(CO)C(O)CC3(C)C(=CCC4C5(C)CCC(OC6OC(C(=O)O)C(OC7OC(CO)C(O)C(O)C7O)C(O)C6OC6OC(CO)C(O)C(O)C6O)C(C)(CO)C5CCC43C)C2CC1(C)C (configuration not stated)
0.392

Identify growth associated with the molecule COc1ccccc1OCCNCC(O)COc1cccc2[nH]c3ccccc3c12 (configuration not stated)
0.0825

Identify growth associated with the molecule CCN(Cc1ccncc1)C(=O)C(CO)c1ccccc1 (configuration not stated) [Tropicamide]
0.33

Identify growth associated with the molecule CC(=O)CCCCn1c(=O)c2c(ncn2C)n(C)c1=O
0.363

Identify growth associated with the molecule O=C1[C@H](CC[C@H](O)c2ccc(F)cc2)[C@@H](c2ccc(O)cc2)N1c1ccc(F)cc1
0.061
